System: CAKI-1 renal
Assay Comment: NCI tumour cell line growth inhibition, 48 h; in the data active = GI50 below about 0.43 µM; inactive = the rest
Outcome codes: 1 for active, -1 for inactive

                                    compound  classification
 0  O=S(=O)(Nc1ccc(Cl)cc1)c1ccc(-c2cnc(C3CC3)o2)cc1              -1
 1  Cc1ccc(Cl)cc1-c1nc(N)nc(Nc2ccc(Br)cc2)n1              -1
 2  CC(C)=CC(=O)OC1C(CO)OC(Oc2cc(O)c3c(=O)cc(-c4ccc(O)c(O)c4)oc3c2)C(OC2OC(C)C(O)C(O)C2O)C1O (stereo unspecified)              -1
 3  Cc1nn(CCO)c(C)c1N=[N+]([O-])c1c(C)nn(CCO)c1C              -1
 4  N#Cc1c(Br)n(C2OC(CO)C(O)C2O)c2ncn3ccnc3c12 (stereo unspecified)              -1
 5  O=C(Nc1ccc([As]=[As]c2ccc(NC(=O)c3ccccc3)cc2)cc1)c1ccccc1 (stereo unspecified)              -1
 6  CC(=O)OC1CC2C(C)(C)C(=O)C=C[C@]2(C)C2CC[C@]3(C)C(OCC(=O)[C@H]3c3ccoc3)[C@]12C (stereo partly specified)              -1
 7  Oc1cccc(-c2nc(-c3n[nH]c(=S)n3-c3ccccc3)cc3c2[nH]c2ccccc23)c1              -1
 8  N#CC1=C(N)Oc2c(ccc3ccccc23)C1c1cccs1 (stereo unspecified)               1
 9  O=C(N/N=C(\CN1CCN(c2cc3[nH]cc(C(=O)O)c(=O)c3cc2F)CC1)c1ccc(Cl)cc1)c1ccncc1              -1
10    COc1ccc2nc3ccccc3c(NCc3ccc(Cl)cc3)c2c1              -1
